Reference source: the supplement of paper PMC8269313

# Test system: 4T1
# Assay procedure: % inhibition of 4T1 cell number vs DMSO control; higher = stronger growth inhibition
# Condition label: 1 µM; 3 days; substrate: Matrigel
Structures can show the parent of a compound that is named as a salt.
Think of 20% as a floor: if % inhibition of 4T1 cell number stands on it or above, it is met; beneath it, not met.

Look over these answered cases.
[[record]]
compound = "COc1cc2ncnc(Nc3cccc(O)c3)c2cc1OC [WHI-P180, Hydrochloride]"
assigned_class = "met"

[[record]]
compound = "O=Nc1c(-c2c(O)[nH]c3cc(Br)ccc23)[nH]c2ccccc12"
assigned_class = "not met"

[[record]]
compound = "O=c1cc(N2CCNCC2)oc2c(-c3ccccc3)cccc12"
assigned_class = "not met"

[[record]]
compound = "NC(N)=NCCNS(=O)(=O)c1cccc2cnccc12 [HA 1004, Dihydrochloride]"
assigned_class = "not met"

[[record]]
compound = "Cc1ccc(NC2=CC(=O)c3sc(C)nc3C2=O)cc1"
assigned_class = "not met"

[[record]]
compound = "CC(C)[C@H](CO)Nc1nc(Nc2cc(N)cc(Cl)c2)c2ncn(C(C)C)c2n1"
assigned_class = "met"

[[record]]
compound = "CS(=O)(=O)c1ccc(-c2nc(-c3ccc(F)cc3)c(-c3ccncc3)[nH]2)cc1"
assigned_class = "met"

[[record]]
compound = "O=S(=O)(c1cccc2cnccc12)N1CCCNCC1 [HA 1077, Dihydrochloride]"
assigned_class = "met"


Qu. Confirm if % inhibition of 4T1 cell number reported for the compound CCC(CO)Nc1nc(NCc2ccccc2)c2ncn(C(C)C)c2n1 [Roscovitine, (S)-Isomer] is 20% or above.
Ans. not met

Qu. Is the recorded value of % inhibition of 4T1 cell number equal to or greater than 20% for this compound? `CCCCc1c(-c2ccc(O)cc2)[nH]c2nccnc12`
Ans. met

Qu. Please indicate if the recorded % inhibition of 4T1 cell number for `Nc1[nH]nc2nnc(-c3c(-c4ccccc4)nn4ccccc34)cc12` meets or exceeds 20%.
Ans. not met

Qu. Say whether `O=C1Cc2c([nH]c3ccc([N+](=O)[O-])cc23)-c2ccccc2N1` shows % inhibition of 4T1 cell number of 20% or more.
Ans. met

Qu. Hi, just wondering whether `Cn1cnc2cc3c(Nc4cccc(Br)c4)ncnc3cc21` shows % inhibition of 4T1 cell number of 20% or higher.
Ans. not met

Qu. Identify whether the reported % inhibition of 4T1 cell number of the following compound is 20% or greater: `COc1ccc2c(c1)c(C1=C(c3c[nH]c4ccccc34)C(=O)NC1=O)cn2CCCN(C)C`
Ans. not met

Qu. Given the entry `CC(=O)O/N=C1/C(c2c(O)[nH]c3cc(Br)ccc23)=Nc2ccccc21` , answer whether its % inhibition of 4T1 cell number meets or surpasses 20%.
Ans. not met

Qu. Check the entry `COc1cc2ncn(-c3cc(OCc4ccccc4S(C)(=O)=O)c(C#N)s3)c2cc1OC` : does % inhibition of 4T1 cell number equal or exceed 20%?
Ans. not met

Qu. Is it the case that `N#Cc1c(NC(=O)c2cccc3ccccc23)sc2c1CCCC2` has % inhibition of 4T1 cell number reaching or exceeding 20%?
Ans. met

Qu. Reported % inhibition of 4T1 cell number at or above 20%? `O=C(Nc1cc(C(F)(F)F)cc(C(F)(F)F)c1)c1cc(Cl)ccc1O`
Ans. met

Qu. Item `Cc1cc2ncc(-c3ccccc3)nc2cc1C` with % inhibition of 4T1 cell number of 20% or above?
Ans. not met

Qu. Kindly determine if % inhibition of 4T1 cell number recorded for `CC(C)n1cnc2c(NCc3ccccc3)nc(NCCCO)nc21` is above or exactly 20%.
Ans. not met

Qu. Dear colleague, could you confirm whether `O=c1c(O)c(-c2ccc(O)c(O)c2)oc2cc(O)c(O)c(O)c12` has % inhibition of 4T1 cell number at or above 20%?
Ans. met

Qu. Decide: % inhibition of 4T1 cell number of `CC(C)[C@H](CO)Nc1nc(Nc2cccc(Cl)c2)c2ncn(C(C)C)c2n1` >= 20%?
Ans. not met

Qu. // inclusive: % inhibition of 4T1 cell number at least 20%? input: `O=C(c1cc2cc(O)ccc2[nH]1)c1cc2cc(O)ccc2[nH]1`
Ans. not met

Qu. Could you please find out whether `Nc1nc(Nc2ccc(S(N)(=O)=O)cc2)nn1C(=S)Nc1c(F)cccc1F` has % inhibition of 4T1 cell number that meets 20% or exceeds it?
Ans. met

Qu. Confirm if % inhibition of 4T1 cell number reported for the compound `O=C1c2ccccc2-c2nc3nnnn3nc21` is 20% or above.
Ans. met

Qu. Please check the record `COc1cc(SC)ccc1C(=O)N1CCC(Cc2ccccc2)CC1` and state if its % inhibition of 4T1 cell number is at or above 20%.
Ans. not met

Qu. State whether the measured % inhibition of 4T1 cell number reaches 20%, counting equality as reaching it, for `COc1ccc(Cl)cc1NC(=O)Nc1cc(C)nc2ccccc12`
Ans. not met
